Experiment: Solubility to alcohol (methanol), visual observation
Type: physicochemical
Set-up: key: ◯: The compound is perfectly dissolved in methanol, and the resultant liquid contains no solid material.; X: The compound is imperfectly dissolved in methanol and the resultant liquid contains a solid material or is opaque (i.e., is not transparent)
Conditions: methanol solution, solid content 60% by weight, one hour at room temperature, visual
readout label: Solubility to methanol, solid content 60% by weight

Answered examples (4):
                                   compound  experimental_value
0  Cc1ccc(N(c2ccc(C)cc2)c2ccc(C=C(c3ccc(OCCO)cc3)c3ccc(OCCO)cc3)cc2)cc1                   X
1  CCc1ccc(N(c2ccc(CCO)cc2)c2ccc(CCO)cc2)cc1C                   X
2  Cc1ccc(N(c2ccc(C)cc2)c2ccc(C=C(c3ccc(OCC(O)CO)cc3)c3ccc(OCC(O)CO)cc3)cc2)cc1 (centres unmarked)                   ◯
3  Cc1ccc(N(c2ccc(C)cc2)c2ccc(C(C)(c3ccc(O)cc3)c3ccc(O)cc3)cc2)cc1                   X

// next item, Solubility to methanol, solid content 60% by weight requested
Entry under test: Oc1cccc(N(c2ccccc2)c2ccc(-c3ccc(N(c4ccccc4)c4cccc(O)c4)cc3)cc2)c1 . Its Solubility to methanol, solid content 60% by weight was X

---

Assay: Solubility to alcohol (methanol), visual observation
Type: physicochemical
Set-up: key: ◯: The compound is perfectly dissolved in methanol, and the resultant liquid contains no solid material.; X: The compound is imperfectly dissolved in methanol and the resultant liquid contains a solid material or is opaque (i.e., is not transparent)
Details: methanol solution, solid content 10% by weight, one hour at room temperature, visual
readout label: Solubility to methanol, solid content 10% by weight

Answered examples (4):
In [3]: df
Out[3]:
                                   molecule  experimental_value
0  Cc1ccc(N(c2ccc(C)cc2)c2ccc(C=C(c3ccc(OCC(O)CO)cc3)c3ccc(OCC(O)CO)cc3)cc2)cc1 (centres unmarked)                   ◯
1  CCc1ccc(N(c2ccc(CCO)cc2)c2ccc(CCO)cc2)cc1C                   ◯
2  Cc1ccc(N(c2ccc(C)cc2)c2ccc(C(C)(c3ccc(O)cc3)c3ccc(O)cc3)cc2)cc1                   ◯
3  Oc1cccc(N(c2ccccc2)c2ccc(-c3ccc(N(c4ccccc4)c4cccc(O)c4)cc3)cc2)c1                   ◯

Entry under test: Cc1ccc(N(c2ccc(C)cc2)c2ccc(C=C(c3ccc(OCCO)cc3)c3ccc(OCCO)cc3)cc2)cc1 . Its Solubility to methanol, solid content 10% by weight was X

---

Test: Solubility to alcohol (methanol), visual observation
Assay type: physicochemical
Parameters: key: ◯: The compound is perfectly dissolved in methanol, and the resultant liquid contains no solid material.; X: The compound is imperfectly dissolved in methanol and the resultant liquid contains a solid material or is opaque (i.e., is not transparent)
Conditions: methanol solution, solid content 5% by weight, one hour at room temperature, visual
readout label: Solubility to methanol, solid content 5% by weight

                                   compound  experimental_value
0  Cc1ccc(N(c2ccc(C)cc2)c2ccc(C(C)(c3ccc(O)cc3)c3ccc(O)cc3)cc2)cc1                   ◯
1  Cc1ccc(N(c2ccc(C)cc2)c2ccc(C=C(c3ccc(OCC(O)CO)cc3)c3ccc(OCC(O)CO)cc3)cc2)cc1 (centres unmarked)                   ◯
2  CCc1ccc(N(c2ccc(CCO)cc2)c2ccc(CCO)cc2)cc1C                   ◯
3  Cc1ccc(N(c2ccc(C)cc2)c2ccc(C=C(c3ccc(OCCO)cc3)c3ccc(OCCO)cc3)cc2)cc1                   X

// next item, Solubility to methanol, solid content 5% by weight requested
Entry under test: Oc1cccc(N(c2ccccc2)c2ccc(-c3ccc(N(c4ccccc4)c4cccc(O)c4)cc3)cc2)c1 . Its Solubility to methanol, solid content 5% by weight was ◯
